Provenance of the data: patent US20260008758A1

# experimental.target: human DPP1 enzyme (Homo sapiens (Human), UniProt P53634)
# Sequence (P53634 25-134): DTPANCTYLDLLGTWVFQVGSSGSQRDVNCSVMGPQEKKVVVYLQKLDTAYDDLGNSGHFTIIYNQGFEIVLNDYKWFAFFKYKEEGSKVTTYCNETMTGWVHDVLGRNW
# Sequence (P53634 231-394): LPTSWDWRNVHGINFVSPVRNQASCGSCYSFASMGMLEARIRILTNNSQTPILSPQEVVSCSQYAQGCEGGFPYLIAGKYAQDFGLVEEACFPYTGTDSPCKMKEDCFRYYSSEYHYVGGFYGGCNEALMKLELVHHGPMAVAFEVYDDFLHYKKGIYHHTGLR
# Sequence (P53634 395-463): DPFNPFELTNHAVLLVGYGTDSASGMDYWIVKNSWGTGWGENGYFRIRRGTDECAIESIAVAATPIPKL
# test.name: Human DPP1 enzyme IC50 assay
# Type: biochemical
# measurement.parameters: recombinant human DPP1, H-Gly-Arg-AMC substrate 400 μM

{"columns": ["compound", "IC50"],
 "data": [
  ["CCCCOCCn1c(=O)oc2ccc(-c3ccc(C[C@@H](C#N)NC(=O)[C@@H](O)CN(C)C)c(F)c3)cc21", "5 to 15 nM"],
  ["Cc1ccccc1[C@@H](N)CC(=O)N[C@H](C#N)Cc1ccc(-c2ccc3oc(=O)n(C)c3c2)cc1", "≥ 15 nM"],
  ["Cn1c(=O)oc2ccc(-c3ccc(C[C@@H](C#N)NC(=O)C(CN)Cc4cccnc4)cc3)cc21 (stereo partly shown)", "≥ 15 nM"],
  ["Cn1c(=O)oc2ccc(-c3ccc(C[C@@H](C#N)NC(=O)[C@@H](O)CN4CCCC4)cc3)cc21", "≥ 15 nM"],
  ["Cn1c(=O)oc2ccc(-c3ccc(C[C@@H](C#N)NC(=O)CC(N)C4CCCCC4)cc3)cc21 (stereo partly shown)", "≥ 15 nM"],
  ["CN(C)CCn1c(=O)oc2ccc(-c3ccc(C[C@@H](C#N)NC(=O)C(C)(N)C4CCC4)c(F)c3)cc21 (stereo partly shown)", "≤ 5 nM"],
  ["COCCN(C)CCn1c(=O)oc2ccc(-c3ccc(C[C@@H](C#N)NC(=O)[C@](C)(N)C4CCCC4)cc3)cc21 [Compound 258B]", "≤ 5 nM"]
]}

* * *

Parameter inhibition at 0.01 µM: see the listing below.
# experimental.target: human DPP1 enzyme (Homo sapiens (Human), UniProt P53634)
# test.name: Human DPP1 enzyme single-point percent inhibition testing (HL-60 lysate, H-Gly-Arg-AMC substrate)
# Format: biochemical
# measurement.parameters: read-out: human DPP1 enzyme % inhibition @ 10 nM, 10 nM compound, 400 μM H-Gly-Arg-AMC, 10 min pre-incubation at 37° C.

{"columns": ["compound", "inhibition at 0.01 µM"],
 "data": [
  ["CO[C@@H](CN(C)C)C(=O)N[C@H](C#N)Cc1ccc(-c2ccc(CN3CCN(C)CC3)cc2)cc1 [Compound 310]", "≤ 40%"],
  ["CO[C@@H](CN(C)C)C(=O)N[C@H](C#N)Cc1ccc(-c2ccc3c(c2)C2(CCN(C4COC4)CC2)OC3)cc1 [Compound 308]", "≤ 40%"],
  ["COCCN(C)CCn1c(=O)oc2ccc(-c3ccc(C[C@@H](C#N)NC(=O)[C@H](CN(C)C)OC)c(F)c3)cc21 [Compound 326]", "≥ 66.7%"],
  ["CN(C)C[C@H](O)C(=O)N[C@H](C#N)Cc1ccc(-c2ccc3c(n2)CCCN3)cc1 [Compound 354]", "≤ 40%"],
  ["CN(C)C[C@](C)(O)C(=O)N[C@H](C#N)Cc1ccc(-c2ccc3oc(=O)n(C)c3c2)cc1 [Compound 395]", "≥ 66.7%"],
  ["CN(C)CCn1c(=O)oc2ccc(-c3ccc(C[C@@H](C#N)NC(=O)[C@@H](O)CN(C)C)c(F)c3)cc21 [Compound 357]", "≥ 66.7%"],
  ["CO[C@@H](CN(C)C)C(=O)N[C@H](C#N)Cc1ccc(-c2ccc3oc(=O)n(CCN(C)C)c3c2)cc1F [Compound 315]", "≥ 66.7%"],
  ["CO[C@@H](CN(C)C)C(=O)N[C@H](C#N)Cc1ccc(-c2ccc3oc(=O)n(C)c3c2)cc1F [Compound 324]", "40 to 66.7%"],
  ["CO[C@@H](CN(C)C)C(=O)N[C@H](C#N)Cc1ccc(-c2ccc3cnn(C)c3c2)cc1F [Compound 332]", "≤ 40%"],
  ["CN(C)C[C@](C)(O)C(=O)N[C@H](C#N)Cc1ccc(-c2ccc3c(n2)CCCN3)cc1F [Compound 409]", "≥ 66.7%"],
  ["CN(C)C[C@](C)(O)C(=O)N[C@H](C#N)Cc1ccc(-c2ccc3oc(=O)n(CCN4CCOCC4)c3c2)cc1 [Compound 393]", "40 to 66.7%"],
  ["CN(C)C[C@](C)(O)C(=O)N[C@H](C#N)Cc1ccc(-c2ccc(S(=O)(=O)N3CCC3)cc2)cc1F [Compound 419]", "≤ 40%"],
  ["CO[C@@H](CN(C)C)C(=O)N[C@H](C#N)Cc1ccc(-c2ccc(S(=O)(=O)N3CCC3)cc2)cc1 [Compound 331]", "≤ 40%"],
  ["CN(C)C[C@H](O)C(=O)N[C@H](C#N)Cc1ccc(-c2ccc3oc(=O)n(C)c3c2)cc1 [Compound 353]", "40 to 66.7%"]
]}

* * *

# experimental.target: DPP1 in HL-60 cells (Homo sapiens (Human))
# Sequence (P53634 25-134): as the sequence (P53634 25-134) above
# Sequence (P53634 231-394): as the sequence (P53634 231-394) above
# Sequence (P53634 395-463): as the sequence (P53634 395-463) above
# test.name: DPP1 cell single-point percent inhibition testing (HL-60 cells, H-Gly-Phe-AFC substrate)
# Assay type: cell-based
# measurement.parameters: read-out: DPP1 cell % inhibition @ 5 nM, 5 nM compound, 100 μM H-Gly-Phe-AFC, 60 min pre-incubation at 37° C.
measurement.name: inhibition at 0.005 µM

{"columns": ["molecule", "measurement.name", "measured"],
 "data": [
  ["CN(C)C[C@](C)(O)C(=O)N[C@H](C#N)Cc1ccc(-c2ccc3nnn(C)c3c2)cc1 [Compound 413]", "inhibition at 0.005 µM", "76.5 to 93.9%"],
  ["Cc1cn2cc(-c3ccc(C[C@@H](C#N)NC(=O)[C@@](C)(O)CN(C)C)c(F)c3)cc2c(C)n1 [Compound 400]", "inhibition at 0.005 µM", "76.5 to 93.9%"],
  ["CN(C)C[C@H](O)C(=O)N[C@H](C#N)Cc1ccc(-c2ccc3c(c2)C2(CCCN(C)C2)C(=O)N3C)cc1F (some centres unmarked) [Compound 356]", "inhibition at 0.005 µM", "76.5 to 93.9%"],
  ["CN(C)C[C@](C)(O)C(=O)N[C@H](C#N)Cc1ccc(-c2ccc3c(n2)CCCN3)cc1 [Compound 396]", "inhibition at 0.005 µM", "≤ 76.5%"],
  ["CN(C)C[C@](C)(O)C(=O)N[C@H](C#N)Cc1ccc(-c2ccc3c(c2)C2(CCN(C)C2)OC3=O)cc1F (some centres unmarked) [Compound 403]", "inhibition at 0.005 µM", "76.5 to 93.9%"],
  ["CN(C)C[C@H](O)C(=O)N[C@H](C#N)Cc1ccc(-c2ccc3cnn(C)c3c2)cc1F [Compound 374]", "inhibition at 0.005 µM", "≤ 76.5%"],
  ["CO[C@@H](CN(C)C)C(=O)N[C@H](C#N)Cc1ccc(-c2ccc3c(c2)C2(CCN(C)C2)OC3=O)cc1F (some centres unmarked) [Compound 319]", "inhibition at 0.005 µM", "≤ 76.5%"],
  ["CN(C)C[C@](C)(O)C(=O)N[C@H](C#N)Cc1ccc(-c2ccc3c(c2)C2(CCN(C)C2)OC3=O)cc1 (some centres unmarked) [Compound 390]", "inhibition at 0.005 µM", "≤ 76.5%"],
  ["CO[C@@H](CN(C)C)C(=O)N[C@H](C#N)Cc1ccc(-c2ccc3oc(=O)n(CCN4CCOCC4)c3c2)cc1F [Compound 322]", "inhibition at 0.005 µM", "≤ 76.5%"],
  ["CN(C)C[C@](C)(O)C(=O)N[C@H](C#N)Cc1ccc(-c2ccc3c(c2)C2(CN(C)C2)OC3=O)cc1F [Compound 401]", "inhibition at 0.005 µM", "≥ 93.9%"],
  ["CN(C)C[C@H](O)C(=O)N[C@H](C#N)Cc1ccc(-c2ccc3oc(=O)n(C)c3c2)cc1F [Compound 366]", "inhibition at 0.005 µM", "76.5 to 93.9%"],
  ["CN(C)C[C@](C)(O)C(=O)N[C@H](C#N)Cc1ccc(-c2ccc(S(=O)(=O)N3CCC3)cc2)cc1 [Compound 415]", "inhibition at 0.005 µM", "≤ 76.5%"],
  ["CCN1C(=O)Cc2ccc(-c3ccc(C[C@@H](C#N)NC(=O)[C@H](CN(C)C)OC)cc3)cc21 [Compound 305]", "inhibition at 0.005 µM", "≤ 76.5%"],
  ["CO[C@@H](CN(C)C)C(=O)N[C@H](C#N)Cc1ccc(-c2ccc3cnn(C)c3c2)cc1 [Compound 328]", "inhibition at 0.005 µM", "≤ 76.5%"]
]}

* * *

# experimental.target: DPP1 in HL-60 cells (Homo sapiens (Human))
# test.name: DPP1 Cell IC50 assay
# measurement.parameters: H-Gly-Phe-AFC substrate, 60 min pre-incubation

{"columns": ["compound", "IC50"],
 "data": [
  ["Cn1c(=O)oc2ccc(-c3ccc(CC(C#N)NC(=O)C4(N)CCCC45CC5)c(F)c3)cc21 (stereo in doubt) [Compound 273A]", "≥ 2.5 nM"],
  ["C[C@@H](N)[C@@H](O)C(=O)N[C@H](C#N)Cc1ccc(-c2ccc3oc(=O)n(C)c3c2)cc1 [Compound 102B]", "≥ 2.5 nM"],
  ["C[C@H](O)[C@](C)(N)C(=O)N[C@H](C#N)Cc1ccc(-c2ccc3oc(=O)n(C)c3c2)cc1 [Compound 171B]", "≥ 2.5 nM"],
  ["Cn1c(=O)oc2ccc(-c3ccc(C[C@@H](C#N)NC(=O)C4(N)CCCC45CC5)c(F)c3)cc21 (stereo partly shown) [Compound 273B]", "≤ 1 nM"],
  ["N#Cc1ccc(-c2ccc(C[C@@H](C#N)NC(=O)C3(N)CCOCC3)c(I)c2)cc1 [Compound 248]", "≥ 2.5 nM"],
  ["Cn1c(=O)oc2ccc(-c3ccc(C[C@@H](C#N)NC(=O)[C@@H](N)Cc4cccnc4)cc3)cc21 [Compound 202]", "≥ 2.5 nM"],
  ["CCCCOCCn1c(=O)oc2ccc(-c3ccc(C[C@@H](C#N)NC(=O)C(C)(N)C4CCC4)c(F)c3)cc21 (stereo partly shown) [Compound 267]", "≥ 2.5 nM"]
]}
